molecular target: Lanosterol synthase (Homo sapiens); test: Inhibitory activity against lanosteral synthase at 0.25 umol/assay; design: scale not given: the % may be the effect or the level left
measurement type: Activity (%)

Consider the worked cases shown below.
INSERT INTO measurements (compound, measurement_type, recorded_result) VALUES
  ('CCCCCC/C=C\CCCCCCCC(=O)OCC(CO[C@@H]1O[C@H](CO[C@H]2O[C@H](CO)[C@H](O)[C@H](O)[C@H]2O)[C@H](O)[C@H](O)[C@H]1O)OC(=O)CCCCCCC/C=C/CCCCCCCC (stereo partly specified)', 'Activity', 4),
  ('CCCCCC/C=C\CCCCCCCC(=O)OC(COC(=O)CCCCCCCCCCCCC)CO[C@@H]1OC(CO[C@H]2OC(CO)[C@H](O)[C@@H](O)C2O)[C@H](O)[C@@H](O)C1O (stereo partly specified)', 'Activity', 35),
  ('CC/C=C\C/C=C\C/C=C\CCCCCCCC(=O)OCC(CO[C@@H]1O[C@H](CO[C@H]2O[C@H](CO)[C@H](O)C(O)[C@H]2O)[C@H](O)C(O)[C@H]1O)OC(=O)CCCCCCC/C=C\CCCCCC (single isomer, unassigned; 2j)', 'Activity', 3);

A: CCCCCC/C=C/CCCCCCCC(=O)OC(COC(=O)CCCCCCC/C=C/CCCCCCCC)CO[C@@H]1O[C@H](COC2O[C@H](CO)[C@H](O)C(O)[C@H]2O)[C@H](O)C(O)[C@H]1O (single isomer, unassigned)
B: CCCCCCCCCCCCCC(=O)OCC(CO[C@@H]1O[C@H](CO[C@H]2O[C@H](CO)[C@H](O)C(O)[C@H]2O)[C@H](O)C(O)[C@H]1O)OC(=O)CCCCCCCCCCCCC (single isomer, unassigned)
Which value of Activity is greater, the one for A or the one for B ? Provide the label of your selected option as the answer.
B
(B: 51%, A: 24%)

====

molecular target: Lanosterol synthase (Homo sapiens); test: Inhibitory activity against lanosteral synthase at 0.25 umol/assay; parameters: scale not given: the % may be the effect or the level left
measurement type: Activity (%)

A: CCCCCC/C=C\CCCCCCCC(=O)OCC(CO[C@@H]1O[C@H](CO[C@H]2O[C@H](CO)[C@H](O)[C@H](O)[C@H]2O)[C@H](O)[C@H](O)[C@H]1O)OC(=O)CCCCCCC/C=C\CCCCCC (stereo partly drawn)
B: CC/C=C\C/C=C\C/C=C\CCCCCCCC(=O)OC(COC(=O)CCCCCCC/C=C/CCCCCCCC)CO[C@@H]1O[C@H](CO[C@H]2O[C@H](CO)[C@H](O)C(O)[C@H]2O)[C@H](O)C(O)[C@H]1O (single isomer, unassigned; 2i)
C: CC/C=C\C/C=C\C/C=C\CCCCCCCC(=O)OCC(CO[C@@H]1OC(CO[C@H]2OC(CO)[C@H](O)[C@@H](O)C2O)[C@H](O)[C@@H](O)C1O)OC(=O)CCCCCCCCCCCCC (stereo partly drawn)
// rank the listed molecules by Activity, lowest value first Form entry: labels listed in requested order.
A, B, C
